- Test system: SF-539 CNS
- assayName: NCI-60 one-dose screen, 48 h
- experimentalContext: 10 µM unless noted
Compounds without any hit were thinned out: in the full panel of roughly 83,000, 20% have a hit. Calls of active or inactive are those of the source. The calls were made as follows: active = growth percent below 10; inactive = the rest.
Give one outcome, nothing more. List: active, inactive

As a guide, the following entries are already answered.
- substanceSmiles: "CCCCSC1=C(Cl)CN(c2ccccc2)C1=O"
  class: "inactive"
- substanceSmiles: "CC(C)(C)OC(=O)NCc1ccc(CNc2c([N+](=O)[O-])cnc3ccccc23)cc1"
  class: "inactive"
- substanceSmiles: "CC1(C)CC[C@]2(C(=O)O)CC[C@]3(C)C(=CC[C@@H]4[C@@]5(C)CC[C@H](NOCCCN)C(C)(C)[C@@H]5CC[C@]43C)[C@@H]2C1"
  class: "inactive"

Query: Which outcome was assigned to "CC(=O)OC[C@]12CC[C@@H](C(=O)/C=C/c3cccnc3)[C@@H]1[C@H]1CC[C@@H]3[C@@]4(C)CC[C@H](OC(C)=O)C(C)(C)[C@@H]4CC[C@@]3(C)[C@]1(C)CC2" in this test?
Reply: active

Query: What classification did "CC(C)(C)Nc1nc2c(OCCc3ccccc3)cccn2c1-c1cccc(Oc2ccccc2)c1" end up with in this test?
Reply: active

Query: What call does the record list for "Cc1ccc(C(=O)CSc2nc3ccccc3c(=O)n2C)cc1" ?
Reply: inactive

Query: Could you check what this test reported for "O=c1c2cc(-c3ccc(F)cc3F)ccc2n(O)c(=O)n1-c1cccc(C(F)(F)F)c1" ?
Reply: inactive

Query: What did the test return for "CNCCN(C)c1ccc(Nc2cc(NC3CC3)n3ncc(C#N)c3n2)cc1NC(C)=O" ?
Reply: active

* * *

Entries and their measured growth follow.
- Test system: IGROV1 ovarian
- assayName: NCI-60 one-dose screen, 48 h (100 = growth as untreated, 0 = no growth, -100 = all killed)
- experimentalContext: 10 µM unless noted
The panel holds about 83,000 compounds, 20% with a hit somewhere; the sample as a whole holds those more often.
Only the number, expressed in %, is required.

Please review the entries below; each comes with its answer.
- compound: "Nn1c(=O)n(-c2cccc(C(F)(F)F)c2)c(=O)c2cc(-c3ccc(F)cc3F)ccc21"
  system: "IGROV1 ovarian"
  growth (%): 20.9
- compound: "O=C(CSc1nc2ccccc2c(=O)n1-c1ccccc1)N/N=C/c1ccc(Oc2ccc(Br)cc2)cc1"
  system: "IGROV1 ovarian"
  growth (%): 65.6
- compound: "Cn1cc(-c2nc(N)nnc2-c2c[nH]c3ccc(Br)cc23)c2cc(F)ccc21"
  system: "IGROV1 ovarian"
  growth (%): 73

growth measured on "CN1CCN(c2ccc(Nc3nc(NCCCNS(=O)(=O)c4ccc(C(F)(F)F)cc4)c4sccc4n3)cc2)CC1" = -6.63

Entry "Cc1ccc2c(n1)C(=O)C(Cl)=C(Nc1ccc(C#N)cc1)C2=O" , growth reported as 68.4

For this compound ( "Cc1ccc(/C(N)=N/C(N)=N/c2nc3ccccc3s2)cc1" ), measured growth is 67.3

* * *

- System: UO-31 renal
- assayName: NCI-60 one-dose screen, 48 h
- experimentalContext: 10 µM unless noted
This is part of a sample that, as a whole, favours compounds with a hit. Of some 83,000 tested, about 20% had one in any assay. Active and inactive are the calls of the source. How the source made its calls: active means growth percent below 10; inactive means the rest.
Please state which outcome applies, choosing from TRUE (active), FALSE (inactive)

Use these answered entries as a reference point.
- compound: "C#Cc1nc(/C=C\\CCCCCCC(=O)NO)cs1"
  system: "UO-31 renal"
  class: "TRUE"
- compound: "C=CCSC1=NC2C(N(CC)C(=O)N2CC)N1/N=C/C=C/c1ccccc1OC (stereo not drawn)"
  system: "UO-31 renal"
  class: "FALSE"
- compound: "COc1cc(C(C)=C(c2ccc(OCCN(C)C)cc2)c2ccc(OCCN(C)C)cc2)ccc1F"
  system: "UO-31 renal"
  class: "FALSE"
- compound: "CC(=O)OC[C@]12CC[C@@H](C(=O)/C=C/c3cccnc3)[C@@H]1[C@H]1CC[C@@H]3[C@@]4(C)CC[C@H](OC(C)=O)C(C)(C)[C@@H]4CC[C@@]3(C)[C@]1(C)CC2"
  system: "UO-31 renal"
  class: "FALSE"
- compound: "CCc1cc(OC(=O)N2CCN(CCC(C)(COC(C)(C)C)COC(C)(C)C)CC2)ccc1Nc1cc(-c2ccc(-n3cccn3)cc2)[nH]n1"
  system: "UO-31 renal"
  class: "FALSE"

Query: Record lookup: outcome of this test for "CNCCN(C)c1ccc(Nc2cc(NC3CC3)n3ncc(C#N)c3n2)cc1NC(C)=O" ?
Reply: TRUE

Query: Entry "CC(C)(C)OC(=O)NCc1ccc(CNc2c([N+](=O)[O-])cnc3ccccc23)cc1" : call = ?
Reply: FALSE

Query: Which result was noted for this compound in the test: "CNC(=O)c1cc(N2CCc3cc(NC(=O)Nc4ccc(N5CCN(C)CC5)c(C(F)(F)F)c4)ccc32)ccn1"
Reply: FALSE

* * *

Item-by-item account of growth
- Tested on: MALME-3M melanoma
- assayName: NCI-60 one-dose screen, 48 h (100 = growth as untreated, 0 = no growth, -100 = all killed)
- experimentalContext: 10 µM unless noted
The panel holds about 83,000 compounds, 20% with a hit somewhere; the sample as a whole holds those more often.
Answer with a number only, understood to be in %.

Some compounds with recorded growth:
- substanceSmiles: "C#C[C@]1(O)CC[C@H]2[C@@H]3CC=C4c5sc(Nc6cccc(F)c6)nc5CC[C@]4(C)[C@H]3CC[C@@]21C"
  system: "MALME-3M melanoma"
  growth / %: 38.3
- substanceSmiles: "O=S(=O)(NCCCNc1nccc(-c2[nH]c(-c3ccccc3)nc2-c2ccc(F)c(O)c2)n1)c1ccccc1"
  system: "MALME-3M melanoma"
  growth / %: -4.84
- substanceSmiles: "N#Cc1c(-c2cccs2)cc(-c2cnccn2)nc1SCC(=O)N/N=C/c1cccs1"
  system: "MALME-3M melanoma"
  growth / %: 39.2

Measured growth (MALME-3M melanoma), entry "COc1ccccc1/C=C/C(=O)c1nnn(-c2ccc(F)cc2)c1C" : 70.6

Simply: "CCOC(=O)c1c(NC(=O)c2ccc(C(F)(F)F)cc2)sc2c(CN3CCN(C)CC3)c(O)ccc12" , MALME-3M melanoma, growth = -56.9

Lab entry: MALME-3M melanoma assay, compound "C=C(C)[C@@H]1CC[C@]2(COCCCNCCCN)CC[C@]3(C)[C@H](CC[C@@H]4[C@@]5(C)CC[C@H](O)C(C)(C)[C@@H]5CC[C@]43C)[C@@H]12" , growth = -83.8

Field growth (MALME-3M melanoma), entry "C#C[C@]1(O)CC[C@H]2[C@@H]3CC=C4c5sc(Nc6cc(Cl)ccc6OC)nc5CC[C@]4(C)[C@H]3CC[C@@]21C" : 12.1

The compound "O=C(Nc1ccc(Cl)c(C(F)(F)F)c1)Nc1ccc2oc(=O)ccc2c1" on MALME-3M melanoma: growth was 42.6

* * *

- Tested on: NCI-H460 lung
- assayName: NCI-60 one-dose screen, 48 h (100 = growth as untreated, 0 = no growth, -100 = all killed)
- experimentalContext: 10 µM unless noted
The panel holds about 83,000 compounds, 20% with a hit somewhere; the sample as a whole holds those more often.
propertyName: growth (%)
Express it in %; write the number only.

These recorded examples may help you get a feel for the data.
- molecule: "NS(=O)(=O)c1ccc(Nc2nc(N/N=C/C=C/c3ccccc3)nc(Nc3ccccc3)n2)cc1"
  unitOfMeasurement: "%"
  growth: 6.23
- molecule: "CN(C)S(=O)(=O)c1ccc(-c2nc(C(Cl)Cl)nc3cc(-c4ccccc4)nn23)cc1"
  unitOfMeasurement: "%"
  growth: 89
- molecule: "NC(=O)c1ncn2c(=O)n(CCF)nnc12"
  unitOfMeasurement: "%"
  growth: 54.9
- molecule: "CCOC(=O)C1=C(C)NC(C)=C(C(=O)OC(C)C)C1c1cccc(C#N)c1 (configuration not stated)"
  unitOfMeasurement: "%"
  growth: 101
- molecule: "O=C(CSc1nc2ccccc2c(=O)n1-c1ccccc1)N/N=C/c1ccc(Oc2ccc(Br)cc2)cc1"
  unitOfMeasurement: "%"
  growth: 28
- molecule: "C#CCOc1cccc(-c2nc(N)nc(Nc3ccccc3SSc3ccccc3Nc3nc(N)nc(-c4cccc(OCC#C)c4)n3)n2)c1"
  unitOfMeasurement: "%"
  growth: -15.7

Next molecule, please.
Entry under test: CCCCCCCCCCCC(=O)NC(C)(C)C(=O)N1CCCC1C(=O)NC(C)(C)C(=O)NC(C)(C)C(=O)N1CCCC1C(=O)NC(C)(C)C(=O)NC(C)(C)C(=O)N1CCCC1C(=O)NC(C)C(=O)NCCC(=O)NC(C)C(=O)NC(C)(C)C(=O)NC(C)(C)C(=O)NC(C)(C)C(=O)NCCC(=O)NC(C)(C)C(=O)NC(C)(C)C(=O)NC(C)(C)C(=O)NC(C)C(=O)NCCC(=O)O (configuration not stated) . Its growth was -79.7
